System: L1210 leukemia ip in BDF1 mice, survival T/C
Experiment: NCI In Vivo Anticancer Drug Screen. Data for tumor model L1210 Leukemia (intraperitoneal) in B6D2F1 (BDF1) mice
Settings: endpoint: mean survival time; dose: 200.0 mg/kg/injection; schedule: Q01DX009 (ip); vehicle: saline; higher = longer survival
Inconclusive results and toxic doses are left out.
Value Type: T/C

C/C=C/C(=O)OC1CC2OC3C=C(C)C4OC4C3(C)C1(C)C21CO1 (configuration not stated) ... 108 % of control

// field: T/C; key: O=C(O)C1CC=CCC1C(=O)O (configuration not stated) ; value = 118 % of control

// field: T/C; key: CN1CCC=C(C(=O)N(c2ccccc2)c2ccccc2)C1 ; value = 97 % of control

// field: T/C; key: CCC1(CC)NC(=O)NC1=O ; value = 98 % of control

// field: T/C; key: OCC1COCOC1 ; value = 106 % of control

// field: T/C; key: CC(C)(C)CC(C)(C)c1ccc(OCCOc2ccc(S(=O)(=O)O)cc2[N+](=O)[O-])cc1 ; value = 105 % of control

// field: T/C; key: CC(N)C(=O)NCC(=O)NCC(=O)O (configuration not stated) ; value = 96 % of control

----------
This section presents compounds with their documented T/C values.
System: L1210 leukemia ip in BDF1 mice, survival T/C
Assay: NCI In Vivo Anticancer Drug Screen. Data for tumor model L1210 Leukemia (intraperitoneal) in B6D2F1 (BDF1) mice
Conditions: endpoint: mean survival time; dose: 50.0 mg/kg/injection; schedule: Q04DX003 (ip); vehicle: saline; higher = longer survival
Inconclusive results and toxic doses are left out. Square brackets hold non-standard residues; d marks the D form. Peptide text beside a SMILES is read from it. * marks the point of attachment. ξ: configuration not given here. Cbz = O=C(OCc1ccccc1)*; ξL = CC(C)CC(N)C(=O)O

CC(N)(C(=O)O)c1ccccc1 (stereo unspecified) ... 96 % of control
Cc1cc(=O)c2cccc(-c3ccccc3)c2[nH]1 ... 100 % of control

// field: T/C; key: COC(=O)CNC(=O)C(CC(C)C)NC(=O)OCc1ccccc1 (stereo unspecified) (Cbz-[ξL]-Gly-OMe) ; value = 94 % of control

// field: T/C; key: C=CCNP(=O)(OCC)OCC ; value = 104 % of control

// field: T/C; key: CCOC(=O)C(=O)c1c(C)[nH]c(C(=O)OCC)c1C ; value = 93 % of control

// field: T/C; key: NC(Cc1cn(Cc2ccccc2)cn1)C(=O)O (stereo unspecified) ; value = 106 % of control

// field: T/C; key: O=C(O)/C=C/C(=O)OCCBr ; value = 95 % of control

----------
System: L1210 leukemia ip in BDF1 mice, survival T/C
Test: NCI In Vivo Anticancer Drug Screen. Data for tumor model L1210 Leukemia (intraperitoneal) in B6D2F1 (BDF1) mice
Details: endpoint: mean survival time; dose: 100.0 mg/kg/injection; schedule: Q01DX009 (ip); vehicle: saline with Tween-80; higher = longer survival
Toxic doses and inconclusive results are not listed.
Value Type: T/C

Cc1cccc(NC(=O)NCCOC(=O)OCCNC(=O)Nc2cccc(C)c2C)c1C ... 97 % of control

// field: T/C; key: CCCCCCCCC1SC1CCCCCCCCOC(=O)CCCCCCCC1SC1CCCCCCCC (stereo unspecified) ; value = 101 % of control

// field: T/C; key: O=C1OCCN1c1ccccc1 ; value = 93 % of control

// field: T/C; key: CCOCC(=O)CC1=CCCCC1 ; value = 102 % of control

// field: T/C; key: O=C1c2ccccc2C(=O)N1C1CCC(O)CC1 (stereo unspecified) ; value = 103 % of control

// field: T/C; key: O=[N+]([O-])c1ccc(N/N=C(\CCc2ccccc2)c2ccccc2)c([N+](=O)[O-])c1 ; value = 96 % of control

// field: T/C; key: Clc1nc2nc(Cl)n(Cl)c2nc1Cl ; value = 95 % of control

// field: T/C; key: O=C(O)/C=C/C(=O)Nc1ccc(N=Nc2ccccc2)cc1 ; value = 92 % of control

// field: T/C; key: OCC12CCCCC1CC1(CC2)OCCO1 (stereo unspecified) ; value = 103 % of control

// field: T/C; key: CC1(C)N=C(N)N=C(N)N1c1ccc(OCCCCNC(=O)Nc2cccc(S(=O)(=O)F)c2)c(Cl)c1 ; value = 116 % of control

// field: T/C; key: Cc1ccc(CCCC(=O)O)c(C)c1 ; value = 105 % of control

----------
Test system: L1210 leukemia ip in BDF1 mice, survival T/C
Experiment: NCI In Vivo Anticancer Drug Screen. Data for tumor model L1210 Leukemia (intraperitoneal) in B6D2F1 (BDF1) mice
Settings: endpoint: mean survival time; dose: 400.0 mg/kg/injection; schedule: Q01DX001 (ip); vehicle: saline; higher = longer survival
Toxic doses and inconclusive results are not listed. Numbered stars: 1 amine (or outer) side, 2 acyl side, 3 side chain; on linkers, the order of the positions; unused ones are H or OH. Square brackets hold non-standard residues; d marks the D form. Peptide text beside a SMILES is read from it. γGlu = O=C(O)[CH](CCC(=O)[*:2])N[*:1]; Hpg = N[CH](C(=O)O)c1ccc(O)cc1
This section presents compounds with their documented T/C values.

Reference set, count: 10
CCc1occ(C(=O)OC)c1C1SCCS1 ... 91 % of control
O=C1C2=C(CCCC2)C(=O)c2ccccc21 ... 102 % of control
CC1C(=O)C=C2CCCC(C)(C)C2(C)C1(O)CCc1ccoc1 (centres undefined) ... 107 % of control
CC(NC(=O)CCC(NC(=O)C(Cc1ccc(O)cc1)NC(=O)CNC(=O)C(C)NC(=O)CCC(NC(=O)C(N)c1ccc(O)cc1)C(=O)O)C(=O)O)C(=O)NCC(=O)NCC(=O)O (centres undefined) (H-[Hpg][γGlu]AGY[γGlu]AGG-OH; configuration not given here) ... 97 % of control
CCCCCCNC(=O)Nc1ccc(Cl)c(Cl)c1 ... 95 % of control
Cc1cc(Cl)c(OCC(=O)O)c(Cl)c1 ... 94 % of control
Cc1c2ccccc2nc2ccccc12 ... 101 % of control
CCCCC(=O)N/N=C/c1cc(I)cc(I)c1O ... 87 % of control
CCOC(=O)C1=NC(c2ccccc2)N(c2ccccc2)C1c1ccccc1 (centres undefined) ... 103 % of control
C/C(=N\N=C(/C)c1ccc(N)cc1)c1ccc(N)cc1 ... 96 % of control

Continue with the next compound.
// field: T/C; key: CC(C)(C)c1cc(O)c(C(C)(C)C)cc1O ; value = 98 % of control

----------
Tested on: L1210 leukemia ip in BDF1 mice, survival T/C
Assay: NCI In Vivo Anticancer Drug Screen. Data for tumor model L1210 Leukemia (intraperitoneal) in B6D2F1 (BDF1) mice
Conditions: endpoint: mean survival time; dose: 100.0 mg/kg/injection; schedule: Q01DX001 (ip); vehicle: carboxymethylcellulose (CMC); higher = longer survival
Toxic doses and inconclusive results are not listed.
Value Type: T/C

Reference set, count: 3
Cc1ccc(-c2ccc(C)cc2[N+](=O)[O-])cc1 ... 91 % of control
CC(O)c1ccc2c(c1)Cc1ccccc1-2 (stereo unspecified) ... 91 % of control
CC(C)=CCC/C(C)=C\C=N\NC(N)=S ... 104 % of control

// field: T/C; key: CC(=O)O/C=C\c1ccccc1 ; value = 98 % of control

// field: T/C; key: NCC(=O)O ; value = 100 % of control

// field: T/C; key: Cc1ccc(S(=O)(=O)OC2CCCC3CC(=O)CCC32C)cc1 (stereo unspecified) ; value = 103 % of control

// field: T/C; key: Nc1[nH]c(=O)nc2nc(I)[nH]c12 ; value = 97 % of control

// field: T/C; key: Nc1c(Br)cc2c([nH]c(=O)c3cc(Br)ccc32)c1Br ; value = 101 % of control

// field: T/C; key: CC1c2nc(N)nc(N)c2CN1C(=O)c1ccccc1 (stereo unspecified) ; value = 98 % of control

// field: T/C; key: Nc1nc(N)nc(Cc2nc(N)nc(N)n2)n1 ; value = 87 % of control

// field: T/C; key: CCOc1ncnc2c1ncn2-c1cccc(C)c1 ; value = 110 % of control

// field: T/C; key: CCOP(=O)(Nc1cccc(Cl)c1)OCC ; value = 94 % of control

// field: T/C; key: N/N=C(\c1ccccc1)c1ccc(Cl)cc1 ; value = 96 % of control

// field: T/C; key: Cc1nc(C)c(C(=O)N/N=C/c2ccc(N(CCCl)CCCl)cc2)s1 ; value = 94 % of control

// field: T/C; key: Cn1cc([N+](=O)[O-])c(=O)n(C)c1=O ; value = 98 % of control

// field: T/C; key: CCCCCCc1cc(N=Nc2ccc(S(=O)(=O)Nc3cc(C)nc(C)n3)cc2)c(O)cc1O ; value = 101 % of control

Source of measurements: PubChem BioAssay AID248
